# TEST SYSTEM: Human immunodeficiency virus type 1 integrase (Human immunodeficiency virus 1, UniProt Q7ZJM1)
# Sequence (Q7ZJM1 whole entry): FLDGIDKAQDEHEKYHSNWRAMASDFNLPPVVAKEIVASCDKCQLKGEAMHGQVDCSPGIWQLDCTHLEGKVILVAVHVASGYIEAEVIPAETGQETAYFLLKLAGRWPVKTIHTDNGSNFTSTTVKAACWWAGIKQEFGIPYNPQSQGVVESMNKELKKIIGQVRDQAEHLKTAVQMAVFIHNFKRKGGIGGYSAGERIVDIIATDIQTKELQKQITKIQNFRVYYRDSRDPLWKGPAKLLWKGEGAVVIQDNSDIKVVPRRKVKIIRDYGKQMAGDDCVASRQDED
# ASSAY PROCEDURE: Inhibition of Human immunodeficiency virus 1 integrase strand transfer activity after 30 mins by polyacrylamide gel electrophoresis
ENDPOINT: log10 of IC50 (log10 of the value in µM)
All values: log10 IC50 [µM].

See these solved cases before continuing.
{"SMILES NOTATION": "Cc1cc(C)cc(/C=C/C(=O)c2cc(Br)cc(C(=O)O)c2O)c1", "log10 of IC50": 1.76}
{"SMILES NOTATION": "CCOc1ccc2ccccc2c1/C=C/C(=O)c1cc(Br)cc(C(=O)O)c1O", "log10 of IC50": 1.66}
{"SMILES NOTATION": "O=C(O)c1cc(Br)cc(C(=O)/C=C/c2ccc(Br)cc2)c1O", "log10 of IC50": 0.70}
{"SMILES NOTATION": "COc1ccc(/C=C/C(=O)c2cc(Br)cc(C(=O)O)c2O)cc1OC1CCCC1", "log10 of IC50": 1.74}

Please state, for each entry, its recorded log10 of IC50.
1. O=C(O)c1cc(Br)cc(C(=O)/C=C/c2cccc(OC(F)(F)F)c2)c1O
2. O=C(O)c1cc(F)cc(C(=O)/C=C/c2cccc(Cl)c2Cl)c1O
3. O=Cc1cc(Br)cc(C(=O)NCc2ccc(F)cc2)c1O
4. Cc1cc(C(=O)O)c(O)c(C(=O)/C=C/c2c(Cl)ccc(Cl)c2Cl)c1
5. O=C(O)c1cc(Br)cc(C(=O)/C=C/c2c(Cl)cccc2Cl)c1O
6. O=C(O)c1cc(Cl)cc(C(=O)/C=C/c2ccc(Cl)cc2)c1O
7. O=C(O)c1cc(Br)cc(C(=O)/C=C/c2ccccc2Cl)c1O
8. O=C(O)c1cc(Br)cc(C(=O)/C=C/c2ccc(Cl)cc2Cl)c1O

Output:
1. 1.72
2. 1.48
3. 0.90
4. 1.70
5. 1.20
6. 1.72
7. 1.15
8. 0.85

Please state, for each entry, its recorded log10 of IC50.
1. O=C(O)c1cc(F)cc(C(=O)/C=C/c2cc(Cl)cc(Cl)c2Cl)c1O
2. COc1cc(F)c(/C=C/C(=O)c2cc(Br)cc(C(=O)O)c2O)cc1OC

Output:
[1.18, 1.88]

====

# TEST SYSTEM: Human immunodeficiency virus type 1 integrase (Human immunodeficiency virus 1)
# ASSAY PROCEDURE: Inhibition of Human immunodeficiency virus 1 integrase-mediated 3'-processing after 30 mins by polyacrylamide gel electrophoresis
ENDPOINT: pIC50
Numbers only, as −log10 of the molar value.

See these solved cases before continuing.
{"SMILES NOTATION": "O=C(O)c1cc(Br)cc(C(=O)/C=C/c2ccc(Br)cc2)c1O", "pIC50": 4.96}
{"SMILES NOTATION": "O=C(O)c1cc(Br)cc(C(=O)/C=C/c2cc(Cl)cc(Cl)c2Cl)c1O", "pIC50": 4.70}
{"SMILES NOTATION": "O=C(O)c1cc(Br)cc(C(=O)/C=C/c2cccc(Oc3ccc(Cl)cc3)c2)c1O", "pIC50": 4.60}

Please state, for each entry, its recorded pIC50.
1. O=C(O)c1cc(F)cc(C(=O)/C=C/c2ccc(Cl)cc2Cl)c1O
2. O=C(O)c1cc(Br)cc(C(=O)/C=C/c2ccc3sccc3c2)c1O
3. O=C(O)c1cc(Br)cc(C(=O)/C=C/c2ccc(Cl)cc2)c1O
4. O=C(O)c1cc(F)cc(C(=O)/C=C/c2cc(Cl)ccc2Cl)c1O

Output:
1. 4.28
2. 4.64
3. 4.09
4. 4.30
